B1: LINE1-full (parent)
chain: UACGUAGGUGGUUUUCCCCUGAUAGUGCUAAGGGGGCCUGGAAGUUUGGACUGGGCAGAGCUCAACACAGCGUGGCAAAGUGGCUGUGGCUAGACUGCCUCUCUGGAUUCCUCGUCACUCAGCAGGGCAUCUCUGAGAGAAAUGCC

# Variants of: B1
# Test Summary: self-cleavage, relative activity (ratio to wild type); higher = more cleavage; in vitro, sequencing; the parent is a self-cleaving ribozyme
# self-cleavage per record follows

The following variants have reported results that may help.
Query Sequence	self-cleavage
UACGUAGGUGGAUUUCCCCUGAUAGUGCUAAGGGGGCCUGGAAGUCUGGACUGGGCAGAGCUCAACACAGCGUGGCAAAGUGGCUGUGGCUAGACUGCCUCUCUGGAUUCCUCGUCACUCAGCAGGGCAUCUCUGAGAGAAAUGCC [U12A U46C]	1.31
UACGUAGGUGGUCUUCCCCUGAUAGUGCUAAGGGGGCCUGAAAGUUUGGACUGGGCAGAGCUCAACACAGCGUGGCAAAGUGGCUGUGGCUAGACUGCCUCUCUGGAUUCCUCGUCACUCAGCAGGGCAUCUCUGAGAGAAAUGCC [U13C G41A]	1.81
UACGUAGGAGGUUUUCCCCUGAUAGUGCUAAGGGGGCCUGGAAGUUUGGACUGGGCAGAGCUCAACACAGCGUGGCAAAGUGGCUGUGGCUAGACUGCCUCUCUAGAUUCCUCGUCACUCAGCAGGGCAUCUCUGAGAGAAAUGCC [U9A G105A]	1.35

input: Please indicate self-cleavage recorded for UACGUAGGUGGUUUUCCCCUGGUAGUGCUAAGGGGGCCUGGAAGUUUGGACUGGGCAGAGCUCAACACAGCGUGGCAAAGUGGCUGUGGCUAGACUGCCUCUCUGGAUUCCUCGUCGCUCAGCAGGGCAUCUCUGAGAGAAAUGCC [A22G A117G]
output: 0.97

input: Please indicate self-cleavage recorded for UACGUAGGUGGUUUUCCCCUGAUAGUGCUAAGGGGGCCUGGAAGUUUGGACUGGGCAGAGCUCAACACAGCGUGGCAAAGUGGCUGUGGCUAGACUGCCCCUCUGGAUUCCUCGUCACUCAGCAGGGCAUCUCUAAGAGAAAUGCC [U100C G135A]
output: 1.74

input: Please indicate self-cleavage recorded for UACGUAGGUGGUUUUCCCCUGAUAGUGCUAAGGGGGCCUGGAGGUUUGGACUGGGCAGAGCUCAACACAGCGUGGCAAAGUGGCUGUGGCUAGACUGCCUCUCGGGAUUCCUCGUCACUCAGCAGGGCAUCUCUGAGAGAAAUGCC [A43G U104G]
output: 1.78
